- Test system: MDA-MB-231 breast
- protocol: NCI tumour cell line growth inhibition, 48 h; in the data active = GI50 below about 0.43 µM; inactive = the rest
Parameter call: string, one of 1 for active, 0 for inactive

Known results for compounds:
CN1CCN(CCCNc2nc3ccc(Oc4ccc(NC(=O)Nc5cc(C(F)(F)F)ccc5F)cc4)cc3[nH]2)CC1 = 0
CC12OC(C(=O)C13CC3)C1C(=O)c3ccc4c(ccc5ccccc54)c3C(=O)C12 (centres undefined) = 0
N#Cc1cc(-c2cc3ccccc3o2)oc1N = 0

For `COc1ccc(C[N+](C)(C)N)cc1OC` , which call appears in the assay record?
0

---

Readings of GI50 for the listed molecules
- Test system: COLO 205 colon
- protocol: NCI tumour cell line growth inhibition, 48 h

Some entries whose results are on file:
COc1ccc(C[N+](C)(C)N)cc1OC = > 100000 nM
Cc1cc2ncnn2cc1Nc1ncc2c(n1)n(C1CCOCC1)c(=O)n2C = 4930 nM
C/C(=N\Nc1ccc(Cl)cn1)c1ccc2ccccc2n1 = 2980 nM

Form field: reported GI50 of `Cc1ccc(N=C/C=C(\Nc2ccc(C)cc2)c2ccc(Cl)cc2)cc1`
7110 nM

Record: `Cc1cc(C)c(NC(=O)c2sc3nc4c(cc3c2N)C(=O)CCC4)c(C)c1`
3230 nM

Would you kindly repeat that for `COc1ccc(-c2nc3ccccn3c2/C=C/C(=O)c2cc(OC)c(OC)c(OC)c2)cc1OC` ?
3920 nM

Next molecule: `COc1ccc(C(=O)c2cc(C)c(OC)c(C)c2)cc1OC(=O)CCl`
751 nM

---

- System: M14 melanoma
- protocol: NCI tumour cell line growth inhibition, 48 h
quantity.measured: TGI

Please review the following examples before continuing.
NNC(=S)N/N=C(/C(=O)Nc1ccc(Cl)c(Cl)c1)C(C1OC(=O)c2ccccc21)[N+](=O)[O-] (stereo not given) = > 100 µM
CCN(CC)CCSc1c2cc(OC)ccc2nc2ccc(OC)cc12 = > 32.3 µM
CCOC(=O)Cn1c(=O)ccn(COCCO)c1=O = > 100 µM

Look up TGI: OCC1OC(n2cnc3c2NC=NC[C@H]3O)C(Cl)C1O (stereo not given in full)
> 100 µM

Then what about the compound `O=S(=O)(c1ccc(NC(=S)NC23CC4CC(CC(C4)C2)C3)cc1)N1CCCCC1` ?
22.7 µM

---

- System: HOP-92 NSCLC
- protocol: NCI tumour cell line growth inhibition, 48 h
quantity.measured: TGI

Recorded results for 2 compounds are shown here.
COC(=O)C(Cc1nc2ccccc2[nH]c1=O)C(NO)C(=O)Nc1c(Cl)cc([N+](=O)[O-])cc1Cl (stereo not drawn) = 25.7 µM
Nc1ccc(Cc2c(N)[nH]c(=O)[nH]c2=O)cc1 = > 100 µM

# TGI lookup, item `CC(C)c1ccc(-c2cc(-c3cn[nH]c3-c3ccccn3)ccn2)cc1`
> 25 µM

Try this compound too: CN(C)CC1CCCC(CN(C)C)C1OC(=O)c1ccccc1 (stereo not drawn)
> 100 µM

Same question for `CCc1cc(Cc2cc(CC)c(NC(=O)C(=O)CC(=O)c3sc(-c4cccnc4)nc3C)c(CC)c2)cc(CC)c1NC(=O)C(=O)CC(=O)c1sc(-c2cccnc2)nc1C` please.
> 100 µM

# iterate: `COC(=O)C12CC3CC(CC(C(=O)O)(C3)C1)C2`
> 100 µM

Moving on to the next compound: `N#Cc1c(-c2ccccc2)[nH]c2ccc(Cl)cc2c1=O`
51.1 µM

Param item: `CCO/C=N\C1=C(C#N)SC2=N/C(=C\c3ccc(OC)cc3)C(=O)N21`
> 100 µM

---

- System: UO-31 renal
- protocol: NCI tumour cell line growth inhibition, 48 h
quantity.measured: TGI

# annotated cases, reported TGI shown
O=S(=O)(c1ccc(NC(=S)NC23CC4CC(CC(C4)C2)C3)cc1)N1CCCCC1 = > 100 µM
O=C(/C=C/c1ccc2ccccc2c1)NCc1ccc(C(=O)NCCc2ccccc2)cc1 = > 100 µM
O=C(Nc1n[nH]c2cc(-c3ccccc3)ccc12)C1CC1 = > 25 µM
COC(=O)c1cc2c(cc1CC(Cc1ccc3c(c1)CCCC3)C(=O)OC)CCCC2 (stereo not drawn) = > 100 µM
COc1cc(Br)cc2cc(-c3cn4c(n3)sc3ccccc34)c(=O)oc12 = > 75 µM
O=C(c1cccs1)N1CCc2ccccc2C1 = > 100 µM

State its TGI on UO-31 renal: `Cc1cc(NS(=O)(=O)c2ccc(Nc3c4ccccc4nc4c(C(=O)N5CCN(CCO)CC5)cccc34)cc2)no1`
> 100 µM

Similarly, CCOC(=O)CCC(=O)C1c2cccc(O)c2C(=O)c2c(O)cc(C)cc21 (stereo not drawn) ?
1.19 µM

How about this molecule: `N#Cc1c(-c2ccccc2)[nH]c2ccc(Cl)cc2c1=O`
44 µM

What about `CC(=O)[C@@H](C)C(=O)N1C(=O)OC[C@@]12[C@@H]1CC[C@@H](C1)C2(C)C` ?
> 100 µM

Another molecule to check: `CCN1CCN(c2nc3ccccc3c3c2CCOc2ccccc2-3)CC1`
> 66 µM

---

- System: CCRF-CEM leukemia
- protocol: NCI tumour cell line growth inhibition, 48 h
quantity.measured: TGI

// worked examples, TGI included
C=CCCC1(CC(Sc2ccccc2)P(=O)(c2ccccc2)c2ccccc2)OCCO1 (centres undefined) = > 10 µM
CN(C(=O)Cc1cccc(N=C=S)c1)[C@H]1CCCC[C@@H]1N1CCCC1 = 32.9 µM
CCc1nc2cc(F)c(/C=C/C(=O)NO)cc2c(=O)n1CCc1ccccc1 = > 100 µM
CSc1nnc(SC)nn1 = 4.53 µM
O=C(N/N=C\C=C\c1ccc([N+](=O)[O-])o1)C(=O)N/N=C\C=C\c1ccc([N+](=O)[O-])o1 = 3.55 µM

Observed TGI on CCRF-CEM leukemia for `C(/C=C/Nc1ccc(Oc2ccccc2)cc1)=Nc1ccc(Oc2ccccc2)cc1` , please.
37 µM

Similarly, COc1cc2cc3c4cc(OC)c(OC)cc4cc[n+]3c(C)c2cc1OC (tested in a mixture with another compound) ?
> 100 µM

And the next one, CC(C)=CCC(O)[C@](C)(O)[C@H]1[C@H](O)C[C@@]2(C)[C@@H]3CCc4cc(O)c(OC5OC(CO)C(O)C(O)C5O)cc4C3(C)C(=O)C[C@]12C (some centres undefined) ?
> 100 µM

Same read-out for CCCC(CCC)NCC(O)c1cc(-c2ccc(C(F)(F)F)cc2)nc(C(F)(F)F)c1 (centres undefined) ?
5.7 µM

---

- Test system: MOLT-4 leukemia
- protocol: NCI tumour cell line growth inhibition, 48 h
quantity.measured: TGI

Record excerpt, results attached:
CC(C)=C[C@H]1CCC2(OCCO2)[C@]1(C)COCc1ccccc1 = 32.3 µM
CC(=O)Oc1ccc2cc(-c3ccccc3OC(C)=O)c(=O)oc2c1 = > 100 µM
NNC(=S)N/N=C(/C(=O)Nc1ccc(Cl)c(Cl)c1)C(C1OC(=O)c2ccccc21)[N+](=O)[O-] (configuration not stated) = > 100 µM

What value of TGI has been recorded for this entry: `COCCCNc1nc(N)c(C#N)c(C#N)c1C#N`
> 10 µM

And `O=C(c1cccc2ccccc12)N1CCC(C2CCN(C(=O)c3cccc4ccccc34)CC2)CC1` ?
> 100 µM

Check `C/C(=N/NC(N)=S)c1ccc[nH]1` too.
> 100 µM

Request: `COC(=O)C1=CS/C(=C2\S[C@@H]3[C@H](S2)[C@H]2C=C[C@@H]3C2)S1`
> 100 µM

What do you have for `CC1=CC(C)(C)N=C2SC(c3ccc(N)cc3)=NN12` ?
> 100 µM

Try CC1=CCC(O)C=CC(C)C(O)C(C)C=C(C)C(=O)c2c(O)c(C)cc3c2C(=O)C(N)=C(NC(=O)/C=C\C=C/C=CC(C)C(O)CC1=O)C3=O (configuration not stated) next.
> 100 µM

Again, but for `O=S(=O)(c1ccc(NC(=S)NC23CC4CC(CC(C4)C2)C3)cc1)N1CCCCC1`
11.4 µM

Param item: `C=C(C)CCN[Si](c1ccccc1)(c1ccccc1)C(C)(C)C`
52.6 µM

---

- Test system: SF-268 CNS
- protocol: NCI tumour cell line growth inhibition, 48 h
quantity.measured: TGI (µM)
Give your result in µM as a bare value.

For the molecule CC(=O)C1Cn2c(nc3ccccc32)C[Se]1 (stereo unspecified) , what TGI is on record?
11.5

Also need `COc1cc2c3c(n(CCCN)c(=O)c2cc1OC)-c1ccc(C#N)cc1C3=O` , thanks.
42.4

Would you kindly repeat that for COc1ccc(C2=C(Cl)c3cc(OC)c(OC)cc3C2Cl)cc1 (stereo unspecified) ?
36

Note, next up: `CCOC(=O)CNC(=O)N(CC)C12CC3CC(CC(C3)C1)C2`
317

Then this molecule: `Cn1c(O)c(C(=O)NC2CCCCC2)c(=O)n(C)c1=S`
21.6

Another molecule to look at: CC(=O)O[C@H]1C(=O)[C@@]2(C)C(C(OC(=O)c3ccccc3)[C@]3(O)CC(OC(=O)C(O)C(NC(=O)c4ccc(C(F)(F)F)cc4)c4ccccc4)C(C)=C1C3(C)C)[C@]1(OC(C)=O)CO[C@@H]1C[C@@H]2O (stereo partly specified)
5.3

Another: CCN(CC)C1CC(O[C@H]2C[C@](O)(C(=O)CO)Cc3c(O)c4c(c(O)c32)C(=O)c2c(OC)cccc2C4=O)OC(C)C1O (stereo partly specified)
0.314

Entry to check: `CCOC(=O)C1CCN(S(=O)(=O)/N=C2/NC(=O)NC2=C(Cl)Cl)CC1`
7.43

Now consider `COC1=C(OC)C(=O)C(Cc2c(C)nc3sccn23)=C(C)C1=O` and answer again.
37.3
